Known Inhibition 1 of a selection of compounds
biological target: cloned human or rodent CNS receptors, channels, and transporters (PDSP panel) (Homo sapiens); construct: expressed in transfected cells; assay: PDSP GPCR panel primary binding assays at 10 μM; conditions: D3; primary assay, replicate 1
Sequence (P35462 whole entry): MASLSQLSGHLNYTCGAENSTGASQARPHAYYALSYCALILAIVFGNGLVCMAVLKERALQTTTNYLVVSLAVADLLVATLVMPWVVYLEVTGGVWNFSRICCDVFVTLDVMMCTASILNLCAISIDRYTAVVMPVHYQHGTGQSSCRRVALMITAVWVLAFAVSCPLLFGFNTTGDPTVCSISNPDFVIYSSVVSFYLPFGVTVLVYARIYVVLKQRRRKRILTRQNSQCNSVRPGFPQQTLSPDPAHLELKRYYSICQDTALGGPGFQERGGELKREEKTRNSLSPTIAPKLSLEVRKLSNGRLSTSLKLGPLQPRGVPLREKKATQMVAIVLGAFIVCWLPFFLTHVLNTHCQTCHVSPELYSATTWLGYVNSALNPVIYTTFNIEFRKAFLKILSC

>  <COMPOUND>
O=c1oc2ccccc2cc1-c1cn2cc(Cc3ccc(F)cc3)sc2n1 [UNC10302680A, iMDK]

>  <MEASUREMENT_UNITS>
%

>  <Inhibition 1>
-10.82

$$$$
>  <COMPOUND>
CNc1nc(C)nc(N[C@H]2CCC[C@@H](C(=O)NCc3ccc(C#N)cc3C(F)(F)F)C2)n1 [UNC10302679A, GSK2256294A]

>  <MEASUREMENT_UNITS>
%

>  <Inhibition 1>
-10.05

$$$$
>  <COMPOUND>
CC(=O)N1CCC(NC(=O)NC23CC4CC(CC(C4)C2)C3)CC1 [UNC10302683A, AR9281]

>  <MEASUREMENT_UNITS>
%

>  <Inhibition 1>
-1.76

$$$$
>  <COMPOUND>
O=C(NC1CC1)C(=O)C(Cc1ccccc1)NC(=O)[C@H]1CCC(=O)N1Cc1ccccc1 (some centres unmarked) [UNC10302676A, ABT-957 (Alicapistat)]

>  <MEASUREMENT_UNITS>
%

>  <Inhibition 1>
10.26

$$$$
>  <COMPOUND>
CCC(=O)N1CCC(NC(=O)Nc2ccc(OC(F)(F)F)cc2)CC1 [UNC10302681A, TPPU]

>  <MEASUREMENT_UNITS>
%

>  <Inhibition 1>
-1.18

$$$$
